Measured values drawn from ChEMBL document CHEMBL1201862 for this set.

System: M14
assay_remarks: NCI tumour cell line growth inhibition, 48 h
Activity calls are given as the source filed them. No stated cut-off is given here; in the data, active = GI50 up to about 1.1 µM and inactive = higher. Starred links: 1 amine or outer side, 2 acyl side, 3 side chain; linkers in the order of their positions; H or OH if unused. Positions of bridges follow the written chain, without caps; N, C: chain ends. Non-standard residues stand in square brackets, D forms with d. Residues, ends and D or L forms follow the SMILES beside them. *: point of attachment. X40 = CC[C@H](C)[C@@H](N[*:1])[C@@H](O)CC(=O)[*:2]; NMeY = CN[C@@H](Cc1ccc(O)cc1)C(=O)O; dNMeL = CN[C@H](CC(C)C)C(=O)O; Hiv = CC(C)[C@H](O)C(=O)O; Pyruvoyl = CC(=O)C(=O)*

molecule	GI50
CC[C@H](C)[C@H]1NC(=O)[C@@H](NC(=O)[C@@H](CC(C)C)N(C)C(=O)[C@@H]2CCCN2C(=O)C(C)=O)[C@@H](C)OC(=O)[C@H](Cc2ccc(OC)cc2)N(C)C(=O)[C@@H]2CCCN2C(=O)[C@H](CC(C)C)NC(=O)[C@H](C(C)C)OC(=O)C[C@@H]1O (Pyruvoyl-P[dNMeL]T[X40][Hiv]LP[NMeY](Me); ester 3-C)	0.00269 µM (active)
CC(C)CC(O)P(=O)(O)O.NC1CCCCC1 (stereo not drawn)	> 100 µM (inactive)
CC(C)OC(=O)c1ccc(NCc2cc(O)ccc2O)cc1	6.84 µM (inactive)
CCCc1cn2c(/C=N/N=C(N)N)c(-c3c(OC)ccc(OC)c3[N+](=O)[O-])nc2s1	7.08 µM (inactive)
CC(=O)Nc1ccc2c(C)c3c(nc2n1)[nH]c1ccccc13	25.4 µM (inactive)
c1ccc([P+](Cc2csnn2)(c2ccccc2)c2ccccc2)cc1	> 100 µM (inactive)
C(=N\Nc1ccccc1)/c1nc2ccccc2nc1/C=N/Nc1ccccc1	14.7 µM (inactive)
[N-]=[N+]=NC(c1cn(C2CC(O)C(CO)O2)c(=O)[nH]c1=O)C(Br)Br (stereo not drawn)	> 100 µM (inactive)
N#Cc1ccccc1NC(=O)C(=O)C(C(=O)c1ccncc1)C1OC(=O)c2ccccc21 (stereo not drawn)	> 100 µM (inactive)
Cc1c(C)c(S(=O)(=O)N(CCCN)OCCCN)c(C)c2c1OC(C)(C)C2	18.1 µM (inactive)
O=[N+]([O-])c1cccc(S(=O)(=O)N/N=C/c2cc(I)cc([N+](=O)[O-])c2O)c1	27.2 µM (inactive)
Cc1ccc(-n2nnc3c(NNc4ccccc4)n[nH]c(=O)c32)cc1	> 100 µM (inactive)
S=C(N1CCN(c2ccc(Cl)c(Cl)c2)CC1)N1CCN(c2ccc(Cl)c(Cl)c2)CC1	15.6 µM (inactive)
S=c1[nH]n2c(CCCCCCCCc3nnc4sc(=S)[nH]n34)nnc2s1	> 100 µM (inactive)
O=C(OCCN1CCCCC1)C(c1ccccc1)C1(O)CCSCC1 (stereo not drawn)	> 100 µM (inactive)
CS(=O)(=O)OCCN(CCOS(C)(=O)=O)c1ccc(/C=N/c2cccc(Cl)c2)cc1	14.5 µM (inactive)
COP(=O)(OC)C(O)CC(C)C (stereo not drawn)	> 100 µM (inactive)
COC(=O)C1=C(CCCCO[Si](C)(C)C(C)(C)C)NC(=O)N2[C@@H](CCOCc3ccccc3)CC[C@H]12	25.8 µM (inactive)
CC(=O)C(C(=O)c1ccc(C)cc1)[C@H]1OC(C)(C)O[C@H]1[C@H]1COC(C)(C)O1 (stereo partly drawn)	6.9 µM (inactive)
Clc1nc(Cl)c(-c2ccccc2)c(Cl)n1	1.62 µM (inactive)
O=C(O)c1ccc([I+]c2ccccc2)cc1	> 100 µM (inactive)
N#Cc1c(-c2ccc([N+](=O)[O-])cc2)cc(-c2ccc(Nc3ccnc4cc(Cl)ccc34)cc2)[nH]c1=O	> 100 µM (inactive)
COc1cccc(CCn2c(N)c(-c3cc(Cl)cc(Cl)c3)c3ccc([N+](=O)[O-])cc3c2=O)c1	3.95 µM (inactive)
O=[N+]([O-])c1ccc(C2CC(c3ccccc3Cl)=Nc3ccccc3[S+]2[O-])cc1 (stereo not drawn)	5.71 µM (inactive)
CCOC(=O)c1nc2cc(F)c(N3CCOCC3)cc2[nH]c1=O	> 100 µM (inactive)
CC(=O)N(CCCCNC(=O)C(F)(F)F)CCCNC(=O)C(F)(F)F	> 100 µM (inactive)
CC(=O)O[C@@H]1CC[C@@]2(C)C(CC[C@H]3[C@@H]4CC[C@H]([C@H](C)CCc5nc6cc(C)ccc6[nH]5)[C@@]4(C)CC[C@@H]32)C1 (stereo partly drawn)	16.1 µM (inactive)
COc1cc2nn(-c3ccccc3)nc2c2nonc12	> 100 µM (inactive)
O=C1CC(c2ccccc2)NCCCCN2CC(CN1)C(C(O)c1ccccc1)C2=O (stereo not drawn)	> 100 µM (inactive)
C[Si](C)(c1ccccc1)C1CC(=O)CC(=O)C1	> 100 µM (inactive)
CC(=O)O[C@H]1CCc2c(cc(N)c3c2C(=O)C[C@]2(C)C([C@H](C)CCCC(C)C)CCC32C)C1(C)C (stereo partly drawn)	> 100 µM (inactive)
C#CC1(O)CCC2[C@@H]3CCc4cc(Oc5nc(F)nc(-c6c(C)c(C(=O)OCC)n7ccccc67)n5)ccc4C3CC[C@@]21C (stereo partly drawn)	> 100 µM (inactive)
Nc1ncnc2c1ncn2C1OC(COP(=O)(O)CP(=O)(O)O)C(O)C1O (stereo not drawn)	> 100 µM (inactive)
O=[N+]([O-])c1nccn1CCCNCCCn1ccnc1[N+](=O)[O-]	> 100 µM (inactive)
CC(C)C[C@H](NC(=O)CCc1ccccc1)B(O)O	12.1 µM (inactive)
Cc1ccc2c(n1)NC(=O)C(Cc1ccccc1)(N=[N+]=[N-])C2=O (stereo not drawn)	> 100 µM (inactive)
CCOC(=O)C(C)c1nc2cc(F)c(F)cc2[nH]c1=O (stereo not drawn)	> 100 µM (inactive)
CC(C)CC1N=C(OCc2ccccc2)OC1=O (stereo not drawn)	> 100 µM (inactive)
